reported metric: melting point

Nc1ccc(OCC2COCCO2)cc1 (stereo not drawn) :: 86 to 87 °C
CCCCc1nc2c(n1Cc1ccc(-c3ccccc3S(=O)(=O)NC(=O)NCCC)cc1)C(=NO)CCS2 :: 178 °C
COc1ccc2c(c1)CCCC2(N)C(=O)O (stereo not drawn) :: > 250 °C
O=S(=O)(NCCCCOc1ccc(-n2ccnc2)cc1)c1cccc2nonc12 :: 125 to 126 °C
CC(C)(C)[Si](C)(C)O[Si](C)(C)C(C)(C)C :: 94 to 95 °C
CCOC(Nc1ccccc1)(OCC)C1(F)C=CN=C(C(=O)c2ccc(Cl)cc2)C1 (stereo not drawn) :: 96 to 97 °C

Go through the items and report each one's melting point.
1. CCOC(=O)C1=C(C)NC(CSCO)=C(C(=O)OCC)C1c1cccc([N+](=O)[O-])c1 (stereo not drawn)
2. Nc1cccc(-c2nc3n(n2)CCc2ccccc2-3)c1
3. CCOP(=O)(OCC)c1nc(NC2CC(C)(C)NC(C)(C)C2)nc(NC2CC(C)(C)NC(C)(C)C2)n1
4. COc1ccc2sc(C(=O)OCC(C)(C)C(=O)C(C)(C)C)cc2c1
5. COc1cc(OC)nc(Nc2ncccc2C(=O)OCc2ccccc2)n1

1: 113 to 114 °C; 2: 118 to 119 °C; 3: 195 °C; 4: 74 to 75.5 °C; 5: 128 to 131 °C

Parameter requested: melting point. Apply to each item below.
1. NS(=O)(=O)c1cccc(NC(=O)c2cnn3c(C(F)(F)F)cc(-c4ccc(Cl)cc4)nc23)c1
2. CCCCC(CC)C(=O)Nc1ccc2ccn(Cc3ccc(C(=O)OC(=O)N(c4ccccc4)c4ccccc4)cc3OC)c2c1 (stereo not drawn)

1: 260 °C; 2: 159 to 162 °C
